Reference source: ChEMBL document CHEMBL1124463

# System: HL-60
# experimentSummary: The ability to induce differentiation of human promyelocytic leukemia HL-60 cell line to mature granulocyte was determined in a NBT reduction assay; Maximum cellular response to compound is less than half of that of retinoic acid.
# Assay type: functional
# testParameters: read-out: ED50 (the source's name)
measuredAttribute: pEC50
pEC50 is a log-scale quantity: -log10 of the concentration expressed in molar.

For record CC1(C)CCC(C)(C)c2cc3c(cc21)C=C(c1ccc(C(=O)O)cc1)C3 the listed pEC50 is 8.18
